Experiment: Confirmatory screen NINDS Rhodamine qHTS for Zika virus inhibitors (AID 1347161); further: nearly all actives have a fitted effect of over 60% in size
Details: purified enzyme assay, Rhodamine110 substrate fluorescence, 15 min; series mostly up to 114 µM
Inconclusive results are not listed. Calls of active or inactive are those of the source. The call rests on the fitted dose curve; in most records, active means well fitted inhibition curve with a large enough effect; inconclusive means small, poorly fitted or top-dose-only effect; inactive means no such curve, though single readings can be large or run the other way.
// classify into true (1) (active), false (0) (inactive)

Tell me the recorded outcome of this test for Cc1c(C)n(Cc2ccc(-c3ccccc3C(=O)O)cc2)c2ccc(C(=O)N[C@@H](C)c3ccc([N+](=O)[O-])cc3)cc12 .
true (1)

Tell me the recorded outcome of this test for CCn1cc(-c2ccnc3[nH]c(-c4cccc(CN(C)C)c4)cc23)c(-c2ccc(NC(=O)N(C)C)cc2)n1 .
false (0)

Tell me the recorded outcome of this test for Cc1cc(N2CCOCC2)cc2[nH]c(-c3c(NC[C@@H](O)c4cccc(Cl)c4)cc[nH]c3=O)nc12 .
true (1)

Tell me the recorded outcome of this test for CCS(=O)(=O)c1cccc(-c2cc(C(=O)NC3CCN(C)CC3)c(C)c3[nH]c4ncc(C)cc4c23)c1 .
false (0)

Tell me the recorded outcome of this test for O=c1c2ccccc2nc2n1CCc1c-2[nH]c2ccccc12 .
true (1)

Tell me the recorded outcome of this test for CC(C)c1ccccc1Cc1cc(C(=O)Nc2ccc(S(=O)(=O)c3ccccc3C(C)(C)C)cc2)c(O)c(O)c1O .
true (1)

Tell me the recorded outcome of this test for CCN1CCN(Cc2ccc(-c3cc4c(N[C@H](C)c5ccccc5)ncnc4[nH]3)cc2)CC1 .
false (0)

Tell me the recorded outcome of this test for O=C(O)C1(Cc2cccc(Nc3nccs3)n2)CCC(Oc2cccc(Cl)c2F)CC1 (centres undefined) .
true (1)

Tell me the recorded outcome of this test for CCc1c2c(nc3ccc(O)cc13)-c1cc3c(c(=O)n1C2)COC(=O)[C@]3(O)CC .
false (0)

###

Assay: High-throughput drug toxicity screening in the BPDCN cell line Gen2.2 (AID 1224824);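 further: cells exposed to compounds for 48 h before reading; 100% = DMSO and 0% = bortezomib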
Conditions: Gen2.2 BPDCN cells; at 45.8 µM (top of the series) unless noted
Task for the reader: assign each of the following compounds its reported cell viability, % of control (lower = more cytotoxic).
Please don't drop the unit; write it after the number.

What value of measured cell viability, % of control (lower = more cytotoxic) is listed for C[C@H]1C[C@@H]2[C@@H]([C@@H](O)C[C@@]3(C)[C@H]2CC[C@]3(O)C(=O)CO)[C@@]2(C)C=CC(=O)C=C12 ?
111%

What value of measured cell viability, % of control (lower = more cytotoxic) is listed for Cc1nc2ccc(CN(C)c3ccc(C(=O)N[C@@H](CCC(=O)O)C(=O)O)s3)cc2c(=O)[nH]1 ?
185%

What value of measured cell viability, % of control (lower = more cytotoxic) is listed for O=c1[nH]nc(Sc2ncc([N+](=O)[O-])s2)n1-c1ccc2c(c1)OCCO2 ?
3.22%

What value of measured cell viability, % of control (lower = more cytotoxic) is listed for CN(C)CC(C)(C)CNc1nn2c(-c3ccccc3)nnc2cc1C1CCC1 ?
13.9%

What value of measured cell viability, % of control (lower = more cytotoxic) is listed for C[C@]1(CO)CN(c2cc(C(=O)Nc3ccc4c(c3)-c3c(c(C(N)=O)nn3-c3ccc(F)cc3)CC4)c(Cl)cn2)C[C@@]1(C)CO ?
27.2%

What value of measured cell viability, % of control (lower = more cytotoxic) is listed for CCC[C@H](NC(=O)C(C#N)=Cc1cccc(Br)n1)c1ccccc1 ?
15.9%

What value of measured cell viability, % of control (lower = more cytotoxic) is listed for CC[C@H]1CN2CCc3cc(OC)c(OC)cc3[C@H]2C[C@@H]1C[C@@H]1NCCc2cc(OC)c(OC)cc21 ?
8.8%

What value of measured cell viability, % of control (lower = more cytotoxic) is listed for CC(C)(C)c1cc(C(C)(C)C)c(NC(=O)c2c[nH]c3ccccc3c2=O)cc1O ?
105%

What value of measured cell viability, % of control (lower = more cytotoxic) is listed for COc1ccc2c(OCc3nnc4ccc(-c5ccccc5)nn34)ccnc2c1 ?
170%
